Ref: patent US4888283A

Target: Pure BAO obtained from swine plasma
Experiment: Inhibition of benzylaminoxidase (BAO), isotopic procedure with 14C-benzylamine
Conditions: 30 minutes pre-incubation; 14C-benzylamine 1,7 mM (saturating); mean ± s.e.
Where a name gives a salt, the structure may show the parent alone.
For each of the compounds below, state its pIC50.
Schema: pIC50 number; meaning minus log10 of the concentration expressed in molar units.

Please report pIC50 for the following compound: NCc1c(O)cccc1O [Example 8, 2,6-dihydroxybenzylamine hydrochloride] 3.00

Please report pIC50 for the following compound: COc1cccc(OC)c1CN.Cl [Example 7, 2,6-di-methoxybenzylamine hydrochloride] 3.92

Please report pIC50 for the following compound: Cl.NCc1c(OCCO)cccc1OCCO [Example 13, hydrochloride] 5.59

Please report pIC50 for the following compound: Cl.NCc1ccccc1CO [Example 6, 2-hydroxymethylbenzylamine hydrochloride] 3.00

---

readout-type: IC50 (mM)
Please reply with the bare figure in mM and do not write the unit itself.

Param request: IC50 | system DAO from swine kidney (Sus scrofa, UniProt Q9TRC7) | item CCCc1cccc(CCC)c1CN.Cl [Example 12, 2,6-di-n-propylbenzylamine hydrochloride] 1

Param request: IC50 | system DAO from swine kidney (Sus scrofa, UniProt Q9TRC7) | item CCOc1cccc(OCC)c1CN.Cl [Example 1, 2,6-diethoxybenzylamine hydrochloride] 12.5

Param request: IC50 | system DAO from swine kidney (Sus scrofa, UniProt Q9TRC7) | item COc1cccc(OC)c1CN.Cl [Example 7, 2,6-di-methoxybenzylamine hydrochloride] 5.6

Param request: IC50 | system DAO from swine kidney (Sus scrofa, UniProt Q9TRC7) | item Cl.NCc1ccccc1O [Example 5, 2-hydroxybenzylamine hydrochloride] 1

---

Tested on: Pure BAO obtained from swine plasma
Assay: Compound as the substrate of BAO (production of H2O2)
Assay type: biochemical
Set-up: key: the compound is the substrate; ns: the compound is not the substrate
Settings: 37° C., air
readout-type: BAO: compound as the substrate

{"compound": "CCCOc1cccc(OCCC)c1CN.Cl", "reported": "ns"}
{"compound": "Cl.NCc1ccccc1O [Example 5, 2-hydroxybenzylamine hydrochloride]", "reported": "s"}

---

Tested on: Pure BAO obtained from swine plasma
Assay: Compound as the substrate of BAO (production of H2O2)
Assay type: biochemical
Design: key: the compound is the substrate; ns: the compound is not the substrate
Settings: 37° C., air
readout-type: BAO: compound as the substrate

Study these solved cases before continuing.
{"compound": "CCCc1cccc(CCC)c1CN.Cl [Example 12, 2,6-di-n-propylbenzylamine hydrochloride]", "reported": "ns"}
{"compound": "CCc1cccc(CC)c1CN.Cl [Example 11, 2,6-diethylbenzylamine hydrochloride]", "reported": "ns"}
{"compound": "COCc1cccc(COC)c1CN.Cl [Example 10]", "reported": "ns"}
{"compound": "Cl.NCc1ccccc1CO [Example 6, 2-hydroxymethylbenzylamine hydrochloride]", "reported": "s"}
{"compound": "COCOc1cccc(OCOC)c1CN.Cl [Example 9]", "reported": "s"}

Param request: BAO: compound as the substrate | system Pure BAO obtained from swine plasma | item Cl.NCc1c(OCCO)cccc1OCCO [Example 13] ns

Param request: BAO: compound as the substrate | system Pure BAO obtained from swine plasma | item CCCCOc1cccc(OCCCC)c1CN.Cl [Example 4] ns

Param request: BAO: compound as the substrate | system Pure BAO obtained from swine plasma | item CCOc1cccc(OCC)c1CN.Cl [Example 1, 2,6-diethoxybenzylamine hydrochloride] ns

Param request: BAO: compound as the substrate | system Pure BAO obtained from swine plasma | item COc1cccc(OC)c1CN.Cl [Example 7, 2,6-di-methoxybenzylamine hydrochloride] ns
